Molecular target: UniProt P10275
Sequence (P10275 1-920): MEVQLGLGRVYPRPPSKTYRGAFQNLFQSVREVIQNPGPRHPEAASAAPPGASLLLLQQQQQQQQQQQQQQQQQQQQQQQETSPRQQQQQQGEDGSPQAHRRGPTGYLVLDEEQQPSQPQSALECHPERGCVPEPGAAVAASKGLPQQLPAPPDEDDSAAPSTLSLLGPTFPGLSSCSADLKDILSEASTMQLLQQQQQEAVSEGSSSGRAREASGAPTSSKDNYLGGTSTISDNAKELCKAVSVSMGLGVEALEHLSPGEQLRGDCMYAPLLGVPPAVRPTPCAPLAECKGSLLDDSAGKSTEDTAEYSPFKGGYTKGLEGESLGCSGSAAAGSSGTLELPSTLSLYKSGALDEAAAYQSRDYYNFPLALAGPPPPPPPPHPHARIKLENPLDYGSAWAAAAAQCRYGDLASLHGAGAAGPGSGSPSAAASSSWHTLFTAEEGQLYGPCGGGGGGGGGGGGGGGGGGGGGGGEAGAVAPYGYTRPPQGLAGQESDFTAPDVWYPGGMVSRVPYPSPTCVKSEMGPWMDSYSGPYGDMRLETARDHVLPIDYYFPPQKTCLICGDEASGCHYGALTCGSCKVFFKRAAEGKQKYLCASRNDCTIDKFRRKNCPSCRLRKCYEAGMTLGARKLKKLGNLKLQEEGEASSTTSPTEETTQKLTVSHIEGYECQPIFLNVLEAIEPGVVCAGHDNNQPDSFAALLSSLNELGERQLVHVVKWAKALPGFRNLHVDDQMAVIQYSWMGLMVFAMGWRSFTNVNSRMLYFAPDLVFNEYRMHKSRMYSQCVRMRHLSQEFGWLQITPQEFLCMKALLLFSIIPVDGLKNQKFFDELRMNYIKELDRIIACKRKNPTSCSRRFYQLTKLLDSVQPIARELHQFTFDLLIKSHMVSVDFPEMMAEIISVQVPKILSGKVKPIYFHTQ
Experiment: Degradation of androgen receptor (AR) protein in VCaP cells by ELISA
Format: cell-based
Settings: AR degradation, VCaP cells, 16 h, ELISA, Table 3-2; read-out: DC50
// reported DC50 per item
Measurement Kind: DC50

{"Molecule": "N#Cc1ccc(O[C@H]2CC[C@H](NC(=O)c3nnc(N4CCC(CN5CCC6(CC5)CN(c5ccc7c(c5)C(=O)N(C5CCC(=O)NC5=O)C7=O)C6)CC4)o3)CC2)cc1Cl (stereo partly drawn)", "Measured Target": "UniProt P10275", "Recorded Measurement": "< 10 nM"}
{"Molecule": "CC1(C)[C@H](Oc2ccc(C#N)c(Cl)c2)C(C)(C)[C@H]1N1Cc2nc(C#C[C@H]3C[C@H](N4CCN(c5cnn(C6CCC(=O)NC6=O)c(=O)c5)CC4)C3)ccc2C1=O (stereo partly drawn)", "Measured Target": "UniProt P10275", "Recorded Measurement": "10 to 100 nM"}
{"Molecule": "CC1(C)[C@H](Oc2ccc(C#N)c(Cl)c2)C(C)(C)[C@H]1N1Cc2nc(C#CC3CCC(N4CC5CC4CN5c4ccc5c(c4)C(=O)N(C4CCC(=O)NC4=O)C5=O)CC3)cnc2C1=O (stereo partly drawn) [Compound 389]", "Measured Target": "UniProt P10275", "Recorded Measurement": "> 300 nM"}
